// data source = the RNAGym collection of RNA variant scans (doi:10.7554/elife.90254)

B1: LINE1-full (parent)
chain: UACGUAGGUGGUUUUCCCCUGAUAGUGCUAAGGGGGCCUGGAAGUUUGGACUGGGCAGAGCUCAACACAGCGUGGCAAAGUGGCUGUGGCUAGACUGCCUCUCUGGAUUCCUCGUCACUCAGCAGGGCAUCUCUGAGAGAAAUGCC

- Variants of: B1
- assay explanation: self-cleavage, relative activity (ratio to wild type); higher = more cleavage; in vitro, sequencing; the parent is a self-cleaving ribozyme
readout type: self-cleavage
Answer as a number with no unit attached.

• A78G C98G = 0.11

Ask: # get_value(readout='self-cleavage', item= G27U U47C )
Result: 0.88

Ask: # get_value(readout='self-cleavage', item= U39C U104C )
Result: 1.77

Ask: # get_value(readout='self-cleavage', item= U26A A69G )
Result: 0.29
